Recorded values, source paper PMC6222624.

Target: human D1 receptors (Homo sapiens, UniProt P21728)
Construct: The cDNA plasmids of D1-like receptors were stably transfected into HEK 293T cells; expressed in transfected cells
Sequence (P21728 whole entry): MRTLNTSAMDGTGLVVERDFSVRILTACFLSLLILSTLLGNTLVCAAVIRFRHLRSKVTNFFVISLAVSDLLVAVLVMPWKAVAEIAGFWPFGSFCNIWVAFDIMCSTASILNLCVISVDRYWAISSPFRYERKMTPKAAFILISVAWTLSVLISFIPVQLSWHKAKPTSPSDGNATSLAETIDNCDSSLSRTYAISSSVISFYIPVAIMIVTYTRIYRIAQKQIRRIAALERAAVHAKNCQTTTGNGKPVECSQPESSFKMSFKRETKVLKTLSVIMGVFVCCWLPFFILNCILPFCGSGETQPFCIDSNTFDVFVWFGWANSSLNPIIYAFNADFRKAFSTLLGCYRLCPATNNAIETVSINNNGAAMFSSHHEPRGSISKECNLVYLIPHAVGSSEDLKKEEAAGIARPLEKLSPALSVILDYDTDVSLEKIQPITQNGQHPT
Experiment: Fluorescent Ca2+ mobilization assay (FLIPR) in HEK 293T cells expressing D1 receptors and Gα15
Type: cell-based
Metric name: IC50 (µM)
State the answer as a number, implicitly in µM.

Param readout= IC50; system= human D1 receptors (Homo sapiens, UniProt P21728); entry= "COc1cc2c(cc1O)-c1cc3ccc(OC)c(OC)c3c[n+]1CC2" ; returns value.
3.4
